Tested on: CRL-7250
Assay: Cytotoxic Profiling of Annotated Libraries Using Quantitative High-Throughput Screening (AID 1296008); further: on the % scale 0 is the no-effect control and ±100 the full control effect; nearly all actives have a fitted effect of over 60% in size
Settings: Five cell lines viability, CellTiter-Glo ATP luminescence, 48-72 h; active compounds read low
Results filed as inconclusive are left out. The source made the active and inactive calls. The call rests on the fitted dose curve; in most records, active means well fitted inhibition curve with a large enough effect; inconclusive means small, poorly fitted or top-dose-only effect; inactive means flat fitted curve, though single readings scatter.
Reported endpoint: max response

CC1COC2(OC3CC4C5CC(O[C@@H]6O[C@H](C)[C@@H](O[C@@H]7O[C@@H](C)[C@H](O)[C@@H](O)[C@H]7O)[C@H](O)[C@H]6O)C6CC(O)CCC6(C)C5CCC4(C)C3C2C)C(O)C1 (stereo not given in full) | -20% (inactive)
C=CC1(C)C=C2C(=O)OC(=O)C3=C(CCCC3(C)C)C2(O)CC1 (stereo not given) | -0.556% (inactive)
C/C=C(/COC(=O)/C(C)=C/C)C(=O)OC(CC)c1ccc(OC)c(OC)c1 (stereo not given) | 3.89% (inactive)

Look at this molecule and give its reported max response. CC1CC[C@]2(C(=O)O)CC[C@]3(C(=O)O)C(=CCC4[C@@]5(C)CC[C@H](OC6OC(C)C(O)C(OC7OC(CO)C(O)C(O)C7O)C6O)C(C)(C)C5CC[C@]43C)C2C1C (stereo not given in full)
-0.92% (inactive)

Quick one: max response for C=C1C(O)C(O)C2(CC3C(C)=CCC4C(C)(CO)CCCC34C)OC2C1O (stereo not given) ?
-2.93% (inactive)
